Tested on: Vero E6 ATCC CRL1586 cells
test.summary: Mammalian-cell cytotoxicity, minimal cytotoxic concentration (CellTiter96)
Assay type: cell-based
measurement.label: MCC mammalian cells Vero E6 ATCC CRL1586

molecule: Cc1c(NC(=O)C(Cc2ccccc2)NC(=O)c2ccccc2)cccc1C(C)C (stereo not drawn)
measured: >100 µg/mL
--
molecule: Cc1ccccc1NC(=O)C(Cc1ccc(O)cc1)NC(=O)c1ccccc1Cl (stereo not drawn)
measured: >100 µg/mL
--
molecule: O=C(NC(Cc1ccccc1)C(=O)Nc1ccccc1N1CCCC1)c1cccs1 (stereo not drawn)
measured: >100 µg/mL

###

Tested on: Mycobacterium smegmatis ATCC 19420
test.summary: Broth microdilution MIC, M. smegmatis
Assay type: cell-based
measurement.context: Mycolicibacterium smegmatis, ATCC19420, M. smegmatis ATCC 19420; read-out: MIC Mycobacterium smegmatis ATCC 19420
Description: MICs in Mycobacterium smegmatis ATCC 19420 and Mycobacterium smegmatis ATCC 19420 derivatives were quantified using broth microdilution assays as described [Clinical and Laboratory Standards Institute (CLSI/NCCLS) (2009) Methods for Dilution Antimicrobial Susceptibility Tests for Bacteria That Grow Aerobically; Approved Standard, Eighth Edition. CLIS Document M07-A8 (CLIS, Wayne Pa.)].
measurement.label: log10 MIC (log10 of the value in µg/mL)

molecule: CN1CCN(c2ccccc2NC(=O)C(Cc2ccccc2)NC(=O)c2ccccc2)CC1 (stereo not shown) [IX-151]
measured: -0.11

molecule: O=C(NC(Cc1ccccc1)C(=O)Nc1cccc2c1OCCO2)c1ccccc1Cl (stereo not shown) [IX-65]
measured: -0.11

molecule: Cc1ccc(F)cc1NC(=O)C(Cc1ccc(O)cc1)NC(=O)c1ccccc1C (stereo not shown) [IX-186]
measured: -0.41

molecule: O=C(NC(Cc1ccccc1)C(=O)Nc1ccccc1N1CCNCC1)c1cccs1 (stereo not shown) [IX-213]
measured: -1.01

molecule: COc1ccc(Cl)cc1NC(=O)C(Cc1ccccc1)NC(=O)c1ccccc1C (stereo not shown) [IX-279]
measured: 0.19

molecule: CC1CN(c2ccc(F)cc2NC(=O)C(Cc2ccccc2)NC(=O)c2ccccc2F)CCN1 (stereo not shown) [IX-305]
measured: -0.11

molecule: Cc1ccc(F)cc1NC(=O)C(Cc1ccc(O)cc1)NC(=O)c1cccs1 (stereo not shown) [IX-188]
measured: -1.01

molecule: Cc1ccccc1NC(=O)C(Cc1ccc(OC(=O)c2ccccc2)cc1)NC(=O)c1ccccc1 (stereo not shown) [I-236]
measured: -0.41

molecule: Cn1ncc2c(NC(=O)C(Cc3ccccc3)NC(=O)c3ccccc3F)cccc21 (stereo not shown) [IX-296]
measured: -0.11

molecule: O=C(NC(Cc1ccc(O)cc1)C(=O)Nc1cccc2ccncc12)c1ccccc1 (stereo not shown) [IX-18]
measured: -0.41

molecule: CC1CN(c2ccccc2NC(=O)C(Cc2ccccc2)NC(=O)c2ccccc2)CC(C)O1 (stereo not shown) [IX-265]
measured: 0.19

molecule: Cc1ccc(F)cc1NC(=O)C(Cc1ccc(O)cc1)NC(=O)c1ccccc1F (stereo not shown) [IX-184]
measured: -0.41

molecule: O=C(NC(Cc1ccccc1)C(=O)Nc1cc(F)ccc1N1CC2CNCC2C1)c1ccccc1F (stereo not shown) [IX-313]
measured: -0.41

molecule: CC(C)Oc1ccccc1NC(=O)C(Cc1ccccc1)NC(=O)c1ccccc1 (stereo not shown) [I-50]
measured: -0.11

molecule: CC1CN(c2ccccc2NC(=O)C(Cc2ccc(O)cc2)NC(=O)c2ccccc2)CC(C)O1 (stereo not shown) [IX-266]
measured: 0.19

molecule: O=C(NC(Cc1ccccc1)C(=O)Nc1ccccc1N1CCNCC1)c1cccc2[nH]ccc12 (stereo not shown) [IX-242]
measured: -1.40

molecule: O=C(NC(Cc1ccccc1)C(=O)Nc1cccc2ncccc12)c1ccccc1Cl (stereo not shown) [IX-64]
measured: -0.11

molecule: O=C(NC(Cc1ccccc1)C(=O)Nc1cccc2[nH]nnc12)c1ccccc1 (stereo not shown) [IX-223]
measured: -0.11

molecule: CNC(=O)N1CCN(c2ccccc2NC(=O)C(Cc2ccccc2)NC(=O)c2ccccc2)CC1 (stereo not shown) [IX-238]
measured: -0.71

molecule: Cc1ccc(Cl)cc1NC(=O)[C@H](Cc1ccccc1)NC(=O)c1ccccc1F [IX-55b]
measured: 1.40

molecule: CCc1ccccc1NC(=O)C(Cc1ccccc1)NC(=O)c1ccccc1 (stereo not shown) [I-115]
measured: -0.41

molecule: CCc1ccccc1C(=O)NC(Cc1ccccc1)C(=O)Nc1ccccc1C (stereo not shown) [I-123]
measured: 0.19

molecule: COc1cccc(NC(=O)C(Cc2ccccc2)NC(=O)c2ccccc2)c1C (stereo not shown) [I-18]
measured: -0.11

molecule: O=C(NC(Cc1ccc(O)cc1)C(=O)Nc1cccc2c1OCO2)c1ccccc1Br (stereo not shown) [IX-125]
measured: 0.19

molecule: COc1ccc(F)cc1NC(=O)C(Cc1ccccc1)NC(=O)c1ccccc1 (stereo not shown) [IX-73]
measured: -0.72

molecule: COc1ccc(F)cc1NC(=O)C(Cc1ccc(O)cc1)NC(=O)c1ccccc1C (stereo not shown) [IX-205]
measured: -0.41

molecule: Cn1nnc2cccc(NC(=O)C(Cc3ccccc3)NC(=O)c3ccccc3)c21 (stereo not shown) [IX-224]
measured: -0.41

molecule: O=C(NC(Cc1ccc(O)cc1)C(=O)Nc1cccc2c1OCCO2)c1ccccc1 (stereo not shown) [IX-21]
measured: -0.11

molecule: O=C(NC(Cc1ccccc1)C(=O)Nc1cccc2c1CCCC2)c1cccs1 (stereo not shown) [IX-86]
measured: -0.11

molecule: O=C(NC(Cc1ccccc1)C(=O)Nc1cccc2cn[nH]c12)c1ccccc1 (stereo not shown) [IX-39]
measured: 0.19

molecule: CCCc1cccc(NC(=O)C(Cc2ccccc2)NC(=O)c2ccccc2)c1C (stereo not shown) [I-127]
measured: 0.49
